- tested on: human PCSK9 / human LDLR EGFa domain interaction (Homo sapiens, UniProt Q8NBP7)
- Sequence (Q8NBP7 153-692): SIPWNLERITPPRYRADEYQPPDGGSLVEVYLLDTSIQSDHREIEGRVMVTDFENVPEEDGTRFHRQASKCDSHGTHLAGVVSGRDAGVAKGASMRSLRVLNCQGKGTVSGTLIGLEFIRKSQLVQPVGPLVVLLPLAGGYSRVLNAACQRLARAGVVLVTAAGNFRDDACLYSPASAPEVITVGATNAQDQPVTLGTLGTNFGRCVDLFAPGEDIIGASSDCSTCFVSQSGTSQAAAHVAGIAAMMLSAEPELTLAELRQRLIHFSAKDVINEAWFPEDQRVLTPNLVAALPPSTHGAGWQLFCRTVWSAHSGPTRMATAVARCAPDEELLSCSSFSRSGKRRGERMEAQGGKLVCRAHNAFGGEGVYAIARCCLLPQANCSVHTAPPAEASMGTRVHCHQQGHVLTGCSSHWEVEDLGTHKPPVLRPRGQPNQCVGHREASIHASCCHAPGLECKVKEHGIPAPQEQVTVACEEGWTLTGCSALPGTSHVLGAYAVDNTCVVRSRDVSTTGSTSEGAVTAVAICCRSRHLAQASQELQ
- Sequence (Q8NBP7 31-152 partner limits assumed): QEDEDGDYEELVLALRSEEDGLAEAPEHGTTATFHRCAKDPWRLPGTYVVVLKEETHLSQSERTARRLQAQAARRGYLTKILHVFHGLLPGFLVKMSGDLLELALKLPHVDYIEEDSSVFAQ
- protocol details: TR-FRET assay of inhibition of the PCSK9-LDLR protein-protein interaction
- stated conditions: 20 nM biotinylated human PCSK9 + 20 nM his-tagged human LDLR EGFa domain, 2 hours room temperature
pIC50: −log10 of the molar value. *1 amine or outer side, *2 acyl side, *3 side chain or, on linkers, in order; H or OH if unused. Where a SMILES comes first, the peptide text is derived from it. Bridges are numbered along the chain shown (N, C = ends). [ ]: non-standard residue; d: D form. X6 = C[C@@H](O)[C@H](CC(=O)[C@H](Cc1cnc[nH]1)N[*:1])C(=O)[*:2]; Ala(4-isoquinolinyl) = N[C@@H](Cc1cncc2ccccc12)C(=O)O; mXylylene = c1cc(C[*:1])cc(C[*:2])c1; Tle = CC(C)(C)[C@H](N)C(=O)O; Nva = CCC[C@H](N)C(=O)O; Mpa = O=C(O)CCS
measure name: pIC50

Ask | pIC50 lookup needed for CCC[C@@H]1NC(=O)[C@H](Cc2cncc3ccccc23)NC(=O)[C@H]([C@@H](C)O)CC(=O)[C@H](Cc2cnc[nH]2)NC(=O)[C@H](Cc2ccc(O)cc2)NC(=O)[C@H](C(C)(C)C)NC(=O)CCSCc2cccc(c2)CSC[C@@H](C(N)=O)NC(=O)[C@H]([C@@H](C)O)NC(=O)[C@H](CCC)NC(=O)[C@H](Cc2ccc(O)cc2)NC(=O)[C@H](CCC(=O)O)NC1=O [Compound 052] ([Mpa][Tle]Y[X6][Ala(4-isoquinolinyl)][Nva]EY[Nva]TC-NH2; linker 1-11 via mXylylene) , thanks.
Reply | 6.00 to 7.00
